biological target: hCA I (Homo sapiens, UniProt P00915); construct: gene CA1; recombinant, obtained in-house; test: stopped-flow CO2 hydration; assay type: biochemical; conditions: CO2 1.7-17 mM, 20 mM Hepes pH 7.5, 20 mM Na2SO4, 15 min preincubation, room temperature; read-out: KI (μM)^a^,^b / hCA I
Sequence (P00915 2-261): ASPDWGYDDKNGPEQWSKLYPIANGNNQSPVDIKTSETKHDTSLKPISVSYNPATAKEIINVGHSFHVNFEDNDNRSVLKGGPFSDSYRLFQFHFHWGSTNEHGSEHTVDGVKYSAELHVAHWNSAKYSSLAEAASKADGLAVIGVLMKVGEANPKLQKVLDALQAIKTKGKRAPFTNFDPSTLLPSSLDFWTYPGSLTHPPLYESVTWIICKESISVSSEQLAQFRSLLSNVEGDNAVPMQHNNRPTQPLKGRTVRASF
// reported Ki per item
Write down the numeric answer in µM and omit the unit.

Q: Would you mind telling me what Ki value was observed for O=C(NO)c1ccccc1 [compound 9, hydroxamic acid 9] ?
Result: 83.1

Q: Would you mind telling me what Ki value was observed for O=C(O)c1ccccc1 ?
Result: 730

----------
target: hCA XII (Homo sapiens, UniProt O43570); construct: gene CA12; recombinant, obtained in-house; assay: stopped-flow CO2 hydration; assay type: biochemical; details: read-out: KI (μM)^a^,^b / hCA XII^c
Sequence (O43570 30-289 limits assumed): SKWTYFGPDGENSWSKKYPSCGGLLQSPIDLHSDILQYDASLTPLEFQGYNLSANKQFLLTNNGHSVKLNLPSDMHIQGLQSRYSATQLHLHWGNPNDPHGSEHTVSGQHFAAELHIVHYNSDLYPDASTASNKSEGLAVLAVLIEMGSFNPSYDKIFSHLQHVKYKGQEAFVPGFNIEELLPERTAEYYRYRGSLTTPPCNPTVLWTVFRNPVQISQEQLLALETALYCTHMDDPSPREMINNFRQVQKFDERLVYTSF
// reported Ki per item
Write down the numeric answer in µM and omit the unit.

These recorded examples may help you get a feel for the data.
{"COMPOUND": "NNS(=O)(=O)c1ccccc1 [compound 3, N-amino sulphonamide 3]", "OBS VALUE": 2.42}
{"COMPOUND": "CONS(=O)(=O)c1ccccc1 [compound 5, N-methoxysulphonamide 5]", "OBS VALUE": 8.32}
{"COMPOUND": "CONC(=O)c1ccccc1 [compound 10, methylated hydroxamate 10]", "OBS VALUE": 28.5}
{"COMPOUND": "NNC(=O)c1ccccc1 [compound 8, hydrazide 8]", "OBS VALUE": 45}
{"COMPOUND": "NC(=O)c1ccccc1 [compound 7, carboxamide 7]", "OBS VALUE": 11.2}

Q: Would you mind telling me what Ki value was observed for O=C(O)c1ccccc1 [compound 6, benzoic acid] ?
Result: 20.4

Q: Would you mind telling me what Ki value was observed for O=S(=O)(NO)c1ccccc1 [compound 4, N-hydroxysulphonamide 4] ?
Result: 1.53

Q: Would you mind telling me what Ki value was observed for O=S(=O)(O)c1ccccc1 [compound 1, benzenesulphonic acid] ?
Result: 6.45

----------
molecular target: hCA XIV (Homo sapiens); construct: gene CA14; recombinant, obtained in-house; experiment: stopped-flow CO2 hydration; assay type: biochemical; settings: read-out: KI (μM)^a^,^b / hCA XIV
Sequence (Q9ULX7 16-290 limits assumed): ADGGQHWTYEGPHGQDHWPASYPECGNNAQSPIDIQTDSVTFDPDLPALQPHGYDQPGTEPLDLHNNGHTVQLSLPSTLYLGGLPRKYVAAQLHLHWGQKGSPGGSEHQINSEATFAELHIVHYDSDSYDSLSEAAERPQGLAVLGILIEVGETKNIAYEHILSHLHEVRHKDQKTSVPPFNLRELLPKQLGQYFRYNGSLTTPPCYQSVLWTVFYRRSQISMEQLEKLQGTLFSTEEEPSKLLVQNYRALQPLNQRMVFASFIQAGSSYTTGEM
VALUE TYPE: Ki (µM)
Write down the numeric answer in µM and omit the unit.

These recorded examples may help you get a feel for the data.
{"COMPOUND": "NNS(=O)(=O)c1ccccc1 [compound 3, N-amino sulphonamide 3]", "VALUE TYPE": "Ki", "UNIT NAME": "µM", "OBS VALUE": 3.81}
{"COMPOUND": "O=S(=O)(O)c1ccccc1", "VALUE TYPE": "Ki", "UNIT NAME": "µM", "OBS VALUE": 8.79}

# evaluate next
Q: Would you mind telling me what Ki value was observed for CONC(=O)c1ccccc1 [compound 10, methylated hydroxamate 10] ?
Result: 10
